This listing pairs molecules with measured IC50.
# target entity: yeast expressing human caspase-1/ASC, counter-screen read-out
# assay explanation: CASP1-PYCARD signal inhibition in yeast, concentration-response, counterassay for NLRP3 inhibitor project (AID 488800)

Examples with their reported IC50 follow.
[Q] Requested field: IC50. Item: Cc1onc(-c2ccccc2Cl)c1C(=O)N1C=CC(C(F)(F)F)=NCC1
[A] 6.51 µM

[Q] Requested field: IC50. Item: COc1cc(CNCCc2ccccc2)ccc1OCc1ccc(Cl)nc1
[A] 4.86 µM

[Q] Requested field: IC50. Item: Cn1c(=O)c(C(=O)Nc2ncccn2)c(O)c2ccccc21
[A] 3.18 µM

[Q] Requested field: IC50. Item: CCCCCC(=O)N1CCN(CCN=CC2=C(O)CC(c3ccco3)CC2=O)CC1 (configuration not stated)
[A] 8.62 µM

[Q] Requested field: IC50. Item: COc1ccc(NC(=O)C#Cc2ccccc2)cc1
[A] 1.44 µM

[Q] Requested field: IC50. Item: O=C(NC(=S)NNC(=O)c1ccccc1O)c1ccc(F)cc1
[A] 1.82 µM

***
[Q] Requested field: IC50. Item: O=C(Nc1ccc(Cl)cc1)Nc1ccc(Cl)c(Cl)c1
[A] 0.805 µM

[Q] Requested field: IC50. Item: O=C(NCCCc1ccccc1)c1c(O)nc2sccn2c1=O
[A] 2.42 µM

[Q] Requested field: IC50. Item: COc1cccc(NC(=O)c2ccccc2)c1
[A] 4.54 µM

[Q] Requested field: IC50. Item: c1ccc(Sc2cccc3ccccc23)c(CNC2=NCCN2)c1
[A] 7.62 µM

[Q] Requested field: IC50. Item: O=c1cc(-c2ccccc2Cl)oc2ccc([N+](=O)[O-])c(O)c12
[A] 1.89 µM

[Q] Requested field: IC50. Item: CCCCCCCCn1c2c(c(=N)c3ccccc31)CCC2
[A] 8.75 µM

* * *

# target entity: yeast expressing human caspase-1/ASC, counter-screen read-out
# assay explanation: CASP1-PYCARD signal inhibition in yeast, concentration-response, counterassay for NLRP3 inhibitor project (AID 488800); cut-off not given, nearly all actives have IC50 up to about 10 µM
Your answer must be one of the following: T (active), F (inactive)

[Q] Lab log entry: O=C(Nc1scc(-c2ccccc2)c1C(=O)O)c1ccc(F)cc1 — outcome as called in the assay?
[A] T

[Q] Lab log entry: COc1c(OC(C)=O)c(=O)n2c3ccccc3c3ccnc1c32 — outcome as called in the assay?
[A] T

[Q] Lab log entry: O=C(Nc1cccc(Cl)c1)c1cc(N=Nc2ccc([N+](=O)[O-])cc2Cl)ccc1O — outcome as called in the assay?
[A] T

[Q] Lab log entry: C=CCc1c(C)nc(C)nc1N/N=C/c1ccccc1O — outcome as called in the assay?
[A] T

[Q] Lab log entry: O=C(CCS(=O)(=O)c1ccccc1)N(CCCN1CCOCC1)c1nc2c(F)cccc2s1 — outcome as called in the assay?
[A] T

[Q] Lab log entry: CCCCCCCCCn1c2c(c(=N)c3c1CCC3)CCC2 — outcome as called in the assay?
[A] T

***
[Q] Lab log entry: CCCOc1ccc(C(=O)NNC(=S)NC(=O)c2cccs2)cc1 — outcome as called in the assay?
[A] T

[Q] Lab log entry: O=c1c2cc(Br)ccc2nc(-c2ccc([N+](=O)[O-])cc2)n1O — outcome as called in the assay?
[A] T

[Q] Lab log entry: O=C(Nc1cccc(Br)c1)c1cc2ccccc2o1 — outcome as called in the assay?
[A] T

[Q] Lab log entry: CN(CC(=O)N1CCc2ccccc2C1)c1ccccc1 — outcome as called in the assay?
[A] T
